# Tested on: UDH-3 (environmental isolate, S. saprophyticus)
# Assay explanation: MIC by broth microdilution
# Assay type: cell-based
# Condition set: Staphylococcus saprophyticus; environmental isolate
# Source text: Bacteria of the genus Staphylococcus were selected for MIC investigation due to its clinical importance. […]
Metric: MIC (µg/mL)

I. COC(=O)CC1COc2c(cc3c4c2CCCN4CCC3)-c2c(NC(C)(C)C)n3c(-c4ccc(F)cc4)c(C)sc3[n+]21 (centres unmarked)
II. COC(=O)CC1COc2c(cc3c4c2CCCN4CCC3)-c2c(NC(C)(C)C)n3c(-c4cccc5c4OCO5)c(C)sc3[n+]21 (centres unmarked)
III. COC(=O)CC1COc2c(cc3c4c2CCCN4CCC3)-c2c(NC(C)(C)C)n3c(-c4ccc(Cl)cc4Cl)c(C)sc3[n+]21 (centres unmarked)
Exercise: Using the recorded MIC, list the entries above from smallest to largest. // respond by listing labels in the order requested
Solution: II, III, I

###

# Test system: UDH-4 (environmental isolate, S. saprophyticus)
# Assay explanation: MIC by broth microdilution
# Type: cell-based
# Condition set: Staphylococcus saprophyticus
Metric: MIC (µg/mL)

Known MIC results, listed for orientation:
COC(=O)CC1COc2c(cc3c4c2CCCN4CCC3)-c2c(NC(C)(C)C)n3c(-c4cccc5c4OCCO5)csc3[n+]21 (stereo not drawn)
6.25
CCN(CC)c1ccc2c(c1)OCC(CC(=O)OC)[n+]1c-2c(NC(C)(C)C)n2c(-c3ccc(OC)cc3)c(-c3ccc(OC)cc3)sc21 (stereo not drawn)
6.25

I. COC(=O)CC1COc2c(cc3c4c2CCCN4CCC3)-c2c(NC(C)(C)C)n3c(-c4cccc5c4OCO5)c(C)sc3[n+]21 (stereo not drawn)
II. COC(=O)CC1COc2c(cc3c4c2CCCN4CCC3)-c2c(NC(C)(C)C)n3c(-c4ccc(Br)cc4)csc3[n+]21 (stereo not drawn)
III. COC(=O)CC1COc2c(cc3c4c2CCCN4CCC3)-c2c(NC(C)(C)C)n3c(-c4ccc(F)cc4)c(C)sc3[n+]21 (stereo not drawn)
IV. CCOC(=O)c1sc2n(c(NC(C)(C)C)c3[n+]2C(CC(=O)OC)COc2c-3cc3c4c2CCCN4CCC3)c1-c1ccccc1 (stereo not drawn)
Exercise: Order these by MIC, descending, and give the full ranking. // respond by listing labels in the order requested
Solution: IV, III, I, II

###

# Tested on: UDH-3 (environmental isolate, S. saprophyticus)
# Assay explanation: MIC by broth microdilution
# Assay type: cell-based
# Condition set: Staphylococcus saprophyticus; environmental isolate
Metric: MIC (µg/mL)

CCOC(=O)c1sc2n(c(NC(C)(C)C)c3[n+]2C(CC(=O)OC)COc2c-3cc3c4c2CCCN4CCC3)c1-c1ccccc1 (stereo not drawn)
12.5

1. NCC[C@H](O)C(=O)N[C@@H]1C[C@H](N)[C@@H](O[C@H]2O[C@H](CN)[C@@H](O)[C@H](O)[C@H]2O)[C@H](O)[C@H]1O[C@H]1O[C@H](CO)[C@@H](O)[C@H](N)[C@H]1O [Amikacin, amikacin, reference compound]
2. COC(=O)CC1COc2c(cc3c4c2CCCN4CCC3)-c2c(NC(C)(C)C)n3c(-c4ccc(OC)cc4)c(-c4ccc(OC)cc4)sc3[n+]21 (stereo not drawn)
Exercise: Which record shows the lower MIC: the first, 1 , or the second, 2 ? Kindly give the label for the entry you pick.
Solution: 1
